All values here come from patent US20200377590A1.

Biological target: T1, CD81 (UniProt P60033 1-236, limits assumed)
T1 construct: whole, on cells; also called CD81 receptor
T1 sequence (looked up): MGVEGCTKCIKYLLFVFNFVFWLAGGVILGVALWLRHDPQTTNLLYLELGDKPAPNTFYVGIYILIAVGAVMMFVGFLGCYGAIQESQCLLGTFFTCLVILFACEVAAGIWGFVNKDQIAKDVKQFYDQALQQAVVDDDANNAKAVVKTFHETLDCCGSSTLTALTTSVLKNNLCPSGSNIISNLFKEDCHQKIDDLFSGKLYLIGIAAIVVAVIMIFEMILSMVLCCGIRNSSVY
Assay: cell ELISA;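 note: antibody binding to HuH7 cells expressing CD81 versus a CD81-negative HuH7 control line, bound antibody detected by secondary reagent, absorbance at 450 nm with 620 nm reference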
With a cut-off of 0.2, any ELISA data strictly below it is called TRUE; any ELISA data meeting it or above is called FALSE.

Some solved entries appear below for comparison.
>  <binder>
CD81K04 HC JA_GG-14-hVH_1_3 / LC GG-04-hVK_4_1 (antibody, V domains shown, human constant region) VH: QVQLVQSGAEVKKPGASVKVSCKASGYTFSSSWMNWVRQAPGQGLEWMGRIYSGDGDAIYNGKFKGRATITADTSASTAYMELSSLRSEDTAVYYCAREGKTGDLLLRSWGQGTLVTVSS VL: DIVMTQSPDSLAVSLGERATINCKSSKSVSTSIYSYLAWYQQKPGQPPKLLIYYASTRESGVPDRFSGSGSGTDFTLTISSLQAEDVAVYYCQHSREFPYTFGQGTKLEIK

>  <group label>
TRUE

$$$$
>  <binder>
CD81K04 HC JA_GG-16-hVH_1_3 / LC GG-02-hVK_4_1 (antibody, V domains shown, human constant region) VH: QVQLVQSGAEVKKPGASVKVSCKASGYTFSSSWMNWVRQAPGQGLEWMGRIYSGDGDAIYNGKFKGRVTITADTSASTAYMELSSLRSEDTAVYYCAREGKTGDLLLRSWGQGTLVTVSS VL: DIVMTQSPDSLAVSLGERATINCKSSKSVSTSIYSYMHWYQQKPGQPPKLLIYYASYRESGVPDRFSGSGSGTDFTLTISSLQAEDVAVYYCQHSREFPFTFGQGTKLEIK

>  <group label>
FALSE

$$$$
>  <binder>
CD81K04 HC JA_GG-15-hVH_1_3 / LC JA_GG-07-hVK_7_3 (antibody, V domains shown, human constant region) VH: QVQLVQSGAEVKKPGASVKVSCKASGYTFSSSWMNWVRQAPGQRLEWMGRIYSGDGDAIYNGKFKGRVTITADTSASTAYMELSSLRSEDTAVYYCAREGKTGDLLLRSWGQGTLVTVSS VL: DIVLTQSPASLAVSPGQRATITCRASKSVSTSIYSYMHWYQQKPGQPPKLLIKYASNKDTGVPARFSGSGSGTDFTLTINPVEANDAANYYCLHSREFPYTFGQGTKLEIK

>  <group label>
FALSE

$$$$
>  <binder>
CD81K04 HC JA_GG-14-hVH_1_69 / LC GG-03-hVK_4_1 (antibody, V domains shown, human constant region) VH: QVQLVQSGAEVKKPGSSVKVSCKASGYTFSSSWMNWVRQAPGQGLEWMGRIYSGDGDAIYNGKFKGKATITADESTSTAYMELSSLRSEDTAVYYCAREGKTGDLLLRSWGQGTLVTVSS VL: DIVMTQSPDSLAVSLGERATINCKSSKSVSTSIYSYLAWYQQKPGQPPKLLIYYASYRESGVPDRFSGSGSGTDFTLTISSLQAEDVAVYYCQHSREFPFTFGQGTKLEIK

>  <group label>
FALSE

$$$$
>  <binder>
CD81K04 HC GG-01-hVH_5_51 / LC JA_GG-08-hVK_4_1 (antibody, V domains shown, human constant region) VH: EVQLVQSGAEVKKPGESLKISCKGSGYSFSSSWMNWVRQMPGKGLEWMGRIYSGDGDAIYSPSFQGQVTISADKSISTAYLQLSSLKASDTAMYYCAREGKTGDLLLRSWGQGTLVTVSS VL: DIVMTQSPDSLAVSLGERATINCKSSKSVSTSIYSYMHWYQQKPGQPPKLLIKYASYLESGVPDRFSGSGSGTDFTLTISSLQAEDVAVYYCEHSREFPFTFGQGTKLEIK

>  <group label>
TRUE

$$$$

Regarding CD81K04 HC JA_GG-13-hVH_1_69 / LC GG-04-hVK_4_1 (antibody, V domains shown, human constant region) VH: QVQLVQSGAEVKKPGSSVKVSCKASGGTFSSSWMNWVRQAPGQGLEWMGRIYSGDGDAIYAQKFQGRVTITADESTSTAYMELSSLRSEDTAVYYCAREGKTGDLLLRSWGQGTLVTVSS VL: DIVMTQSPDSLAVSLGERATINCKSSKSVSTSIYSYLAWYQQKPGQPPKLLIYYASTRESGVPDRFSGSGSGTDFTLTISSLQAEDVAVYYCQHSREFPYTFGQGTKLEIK , kindly confirm whether its ELISA data is beneath 0.2.
TRUE

Regarding CD81K04 HC K04_JA-13-hVH_1_3 / LC GG-04-hVK_4_1 (antibody, V domains shown, human constant region) VH: QVQLVQSGAEVKKPGASVKVSCKASGYTFSSSWMNWVRQAPGQRLEWMGRIYSGDGDAIYNGKFKGRVTITRDTSASTAYMELSSLRSEDTAVYYCAREGKTGDLLLRSWGQGTLVTVSS VL: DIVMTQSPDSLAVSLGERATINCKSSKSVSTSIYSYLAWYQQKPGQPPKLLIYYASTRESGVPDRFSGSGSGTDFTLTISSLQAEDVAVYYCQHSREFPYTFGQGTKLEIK , kindly confirm whether its ELISA data is beneath 0.2.
TRUE

Regarding CD81K04 HC JA_GG-14-hVH_1_69 / LC GG-05-hVK_3_11 (antibody, V domains shown, human constant region) VH: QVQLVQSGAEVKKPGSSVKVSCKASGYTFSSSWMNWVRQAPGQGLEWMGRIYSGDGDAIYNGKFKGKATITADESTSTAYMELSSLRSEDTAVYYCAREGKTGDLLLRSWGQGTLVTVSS VL: EIVLTQSPATLSLSPGERATLSCRASKSVSTSIYSYLHWYQQKPGQAPRLLIYYASNRETGIPARFSGSGSGTDFTLTISSLEPEDFAVYYCQHSREFPFTFGQGTKLEIK , kindly confirm whether its ELISA data is beneath 0.2.
FALSE

Regarding CD81K04 HC JA_GG-14-hVH_1_3 / LC GG-03-hVK_4_1 (antibody, V domains shown, human constant region) VH: QVQLVQSGAEVKKPGASVKVSCKASGYTFSSSWMNWVRQAPGQGLEWMGRIYSGDGDAIYNGKFKGRATITADTSASTAYMELSSLRSEDTAVYYCAREGKTGDLLLRSWGQGTLVTVSS VL: DIVMTQSPDSLAVSLGERATINCKSSKSVSTSIYSYLAWYQQKPGQPPKLLIYYASYRESGVPDRFSGSGSGTDFTLTISSLQAEDVAVYYCQHSREFPFTFGQGTKLEIK , kindly confirm whether its ELISA data is beneath 0.2.
FALSE

Regarding CD81K04 HC GG-05-hVH_1_18 / LC JA_GG-07-hVK_7_3 (antibody, V domains shown, human constant region) VH: QVQLVQSGAEVKKPGASVKVSCKASGYTFSSSWMNWVRQAPGQGLEWMGRIYSGDGDAIYAQKLQGRVTMTTDTSTSTAYMELRSLRSDDTAVYYCAREGKTGDLLLRSWGQGTLVTVSS VL: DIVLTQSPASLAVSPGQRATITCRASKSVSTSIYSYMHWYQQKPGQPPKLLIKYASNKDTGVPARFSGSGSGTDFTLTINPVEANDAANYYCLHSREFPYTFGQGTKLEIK , kindly confirm whether its ELISA data is beneath 0.2.
TRUE
